Ok so here's the combined literature set: IC50 for NAMPT (Homo sapiens, UniProt P43490).
Answers are plain numbers, in nM.

Example entries and their recorded answers appear below.
Smiles Data	Units Label	IC50
CC(C)CCN(C(=O)C1CC1)c1ncc(C(=O)NCCCn2ccnc2)s1	nM	0.232
Cc1ncccc1N1CC(C(=O)Nc2ccc(C3CCN(C(=O)CCN(C)C)CC3)cc2)C1	nM	171
N#Cc1cccc(C(=O)N2CCC(c3ccc(C(=O)NCc4ccn5ccnc5c4)cc3)CC2)c1	nM	0.292
O=C(NCc1ccn2ccnc2c1)c1ccc(C2CCN(C(=O)CC3CCOCC3)CC2)cc1	nM	0.243
O=C(NCc1ccn2ccnc2c1)c1ccc(OC2CCN(C(=O)CN3CCOCC3)CC2)cc1	nM	0.338

// each listed compound needs a value for IC50
1. CC(C)CC(=O)N(CCc1ccc(C#N)cc1)c1ncc(C(=O)NCCCn2ccnc2)s1
2. O=C(Nc1ccc(C2CCN(C(=O)c3ccoc3)CC2)cc1)C1CN(c2cccnn2)C1
3. O=C(Nc1ccc(OC2CN(C(=O)c3ccc(F)cc3F)C2)cc1)C1CN(c2ccnnc2)C1

1: 0.701; 2: 0.679; 3: 34.4
